Entry source: ChEMBL document CHEMBL3885861

APTT: recorded values
- Organism: Rattus norvegicus
- protocol details: Open TG-GATES - Regimen: Single
- Format: toxicity, organism-based, Sprague-Dawley
- Set-up: regimen Single, gender Male, age 6 weeks
- applied conditions: in vivo, po, 1000 mg/kg, 3 h, tissue Blood, route gavage, dose level High

molecule	APTT / s
COc1ccc2[nH]c([S+]([O-])Cc3ncc(C)c(OC)c3C)nc2c1 (centres undefined)	18.6
NC(N)=Nc1nc(CSCCC(N)=NS(N)(=O)=O)cs1	18.8
CCOC(=O)CCC(=O)O[C@H]1[C@H](O[C@@H]2[C@@H](C)[C@H](O[C@H]3C[C@@](C)(OC)[C@@H](O)[C@H](C)O3)[C@@H](C)C(=O)O[C@H](CC)[C@@](C)(O)[C@H](O)[C@@H](C)C(=O)[C@H](C)C[C@@]2(C)O)O[C@H](C)C[C@@H]1N(C)C [ERYTHROMYCIN ETHYLSUCCINATE]	22.2
COC1=CC(=O)C[C@@H](C)[C@]12Oc1c(Cl)c(OC)cc(OC)c1C2=O	19.4
